tested on: RAW264.7; test: Cytotoxicity activity mouse RAW264.7 cells assessed as reduction in cell viability at upto 100 uM incubated for 48 hrs by CCK-8 assay; format: toxicity, cell-based; details: raw264.7, 48 h
test.readout: Activity

molecule	system.tested	test.readout	recorded.value
C=C[C@]1(C)C[C@@H](OC(=O)CO)[C@@]2(C)C3C(=O)[C@H](O)CC3(CC[C@H]2C)[C@@H](C)[C@@H]1O (single isomer, unassigned)	RAW264.7	Activity	Non-Toxic
C[C@@H]1CC[C@@]23CCC(=O)C2[C@]1(C)[C@H](OC(=O)CO)C[C@@](C)([C@H](O)CO)[C@@H](O)[C@@H]3C (stereo partly drawn)	RAW264.7	Activity	Non-Toxic
C=C[C@]1(C)C[C@@H](O)[C@@]2(C)C3[C@H](O)CC[C@@]3(CC[C@H]2C)[C@@H](C)C1 (stereo partly drawn)	RAW264.7	Activity	Non-Toxic
